Recorded exon inclusion enrichment index, one value per entry.
B1: mRNA-splicing (parent)
chain: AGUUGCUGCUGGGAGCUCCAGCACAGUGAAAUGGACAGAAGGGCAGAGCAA

variants of: B1; assay: exon inclusion enrichment index; higher = more inclusion; WT1 exon 5 minigene, HEK293

AGUUCGCGCCGGGAGCUCCAGCGUAGUGAAAUGGACAGAAGGGCAGAGCAA [G5C C6G U7C U10C A23G C24U] : 1.96
AGUUCGCGCCGGGAGCUCCAGCACAGUGAAAUGGACAGAAGGGCGAAGCAA [G5C C6G U7C U10C A45G G46A] : 6.29
AGUUACCACCCUGAGCUCCAGCACAGUGAAAUGGACAGAAGGGCAGAGCAA [G5A U7C G8A U10C G11C G12U] : 0.353
AGUUGACGACGGGAGCUCCAGCACACUGAAAUGGACAGAAGGGCAGAGCAA [C6A U7C C9A U10C G26C] : 3.46
AGUUGCUGCUGGGAGCUCCAGCACAGUGAAAUGGAUAGAAGGGCAGAGCAA [C36U] : 0.0249

Kindly review the next variant as well.
I have this variant here, AGUUCGCGCCGGGAGCUCCAUGACAGUGAAAUGGACAGAAGGGCAGAGCAA [G5C C6G U7C U10C G21U C22G] , and I need its recorded exon inclusion enrichment index.
3.57
